# maps each entry to its kon
# TESTED_TARGET: T1, Macaca fascicularis IL2Rγ extracellular domain expressed with a C-terminal myc-myc-hexahistidine tag (Macaca fascicularis)
# T1 construct: also called mfIL-2Rg-MMH; mfIL-2RG-MMH
# T1 chain: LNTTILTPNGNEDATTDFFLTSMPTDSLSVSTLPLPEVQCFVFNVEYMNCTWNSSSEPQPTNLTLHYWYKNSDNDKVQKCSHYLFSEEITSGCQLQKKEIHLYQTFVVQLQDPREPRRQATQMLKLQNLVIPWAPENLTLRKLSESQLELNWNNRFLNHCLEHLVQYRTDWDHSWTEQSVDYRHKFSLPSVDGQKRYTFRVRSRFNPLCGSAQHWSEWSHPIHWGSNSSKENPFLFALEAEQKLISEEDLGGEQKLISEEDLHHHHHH
# PROCEDURE_TEXT: SPR Biacore 4000, mAb captured by anti-hFc, HBS-ET, 25C
Dear colleague, please return just the value in M⁻¹ s⁻¹, with no unit written.

BINDER	kon, M⁻¹ s⁻¹
H4H12889P (antibody, human IgG4 S228P, kappa, V domains shown, anti-IL2Rγ monoclonal antibody expressed with human IgG4 Fc; also called REGN7257) VH: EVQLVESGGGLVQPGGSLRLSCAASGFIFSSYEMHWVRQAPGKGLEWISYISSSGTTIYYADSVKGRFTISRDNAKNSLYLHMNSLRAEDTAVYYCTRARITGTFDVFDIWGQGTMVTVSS VL: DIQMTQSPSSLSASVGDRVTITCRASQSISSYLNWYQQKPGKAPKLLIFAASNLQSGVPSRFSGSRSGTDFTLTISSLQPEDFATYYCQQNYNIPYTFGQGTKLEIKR	233000

Data request: Give kon for H4H13538P (antibody, human IgG4 S228P, kappa, V domains shown, anti-IL2Rγ monoclonal antibody expressed with human IgG4 Fc) VH: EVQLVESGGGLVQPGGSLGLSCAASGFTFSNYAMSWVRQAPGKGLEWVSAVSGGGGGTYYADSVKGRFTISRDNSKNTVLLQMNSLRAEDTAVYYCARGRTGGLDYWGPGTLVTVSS VL: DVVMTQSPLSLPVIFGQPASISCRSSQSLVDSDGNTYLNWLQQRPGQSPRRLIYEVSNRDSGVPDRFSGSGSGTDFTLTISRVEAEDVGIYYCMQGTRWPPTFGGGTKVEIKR
Data returned: 133000

Data request: Read off the recorded kon for H4H12863P (antibody, human IgG4 S228P, kappa, V domains shown, anti-IL2Rγ monoclonal antibody expressed with human IgG4 Fc) VH: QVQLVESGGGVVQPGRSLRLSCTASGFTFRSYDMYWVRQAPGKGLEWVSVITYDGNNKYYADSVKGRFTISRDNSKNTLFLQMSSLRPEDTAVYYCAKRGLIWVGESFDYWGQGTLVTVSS VL: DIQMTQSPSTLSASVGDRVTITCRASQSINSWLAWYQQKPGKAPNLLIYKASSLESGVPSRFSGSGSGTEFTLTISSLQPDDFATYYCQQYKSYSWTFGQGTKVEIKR
Data returned: 189000
